- Assay comment: Pharmacokinetic study in plasma after oral administration (HPLC-MS)
- Condition: male, SD, rat, in vivo, Drug concentration in plasma, 0.75 h, SD rats, EFX 10 mg/kg, EFX-Ca 12 mg/kg

{"Compound": "CCN1CCN(c2cc3c(cc2F)c(=O)c(C(=O)[O-])cn3C2CC2)CC1.CCN1CCN(c2cc3c(cc2F)c(=O)c(C(=O)[O-])cn3C2CC2)CC1.O.O.O.O.[Ca+2] [EFX-Ca, [Ca(EFX)2(H2O)4]·H2O]", "concentration at 0.75 h (ng/mL)": 1920}

Data origin, for the record: paper PMC8878047
